This collection of values is drawn from patent US20250320312A1.

Biological target: Peptide 1: Biotin-…-[Tyr(PC)]-acid
Sequence (peptide, as listed by the source): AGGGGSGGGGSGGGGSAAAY
Assay: scFv ELISA
For each entry below, report its OD450 value.
Give just the numeric value; OD450 need not be written.

Tell me OD450 reported for PcOxP_DB03_C03 (scFv, V domains shown, scFv in periplasmic extract) VH: EVQLLESGGGLVQPGGSLRLSCAASGFTFSDFYMEWVRQAPGKGLEWVAASRNKYNDYTTEYADSVKGRFTISRDNSKNTLYLQMNSLRAEDTAVYYCARDYYGSSYWYFDVWGQGTLVTVSS VL: DIQMTQSPSSLSASVGDRVTITCTASESLYSSKHKVHYLAWYQQKPGKAPKLLIYGASNRYIGVPSRFSGSGSGTDFTLTISSLQPEDFATYYCAQFYSYPLTFGGGTKVEIK
1.36

Specify measured OD450 for PcOxP_DB01_D01 (scFv, V domains shown, scFv in periplasmic extract) VH: EVQLLESGGGLVQPGGSLRLSCAASGFTFSSYYMEWVRQAPGKGLEWVAASRNKANDYTTEYADSVKGRFTISRDNSKNTLYLQMNSLRAEDTAVYYCARDYYGSSYWYFDVWGQGTLVTVSS VL: DIVMTQSPDSLAVSLGERATINCTASESLYSPKHKVHYLAWYQQKPGQPPKLLIYGASNRYIGVPDRFSGSGSGTDFTLTISSLQAEDVAVYYCAQFYIYPLTFGGGTKVEIK .
0.85
